Where do these numbers come from? They come from patent US20250250357A1.

Below, each of the binders is paired with its reported OD450 value.
- assay.system: T1, human MSLN-R3-3 polypeptide (human)
- T1 construct: also called human MSLN-R3-3 protein; hMSLN-R3-3
- assay.method.text: ELISA on coated antigen, antibody 100 nM
Field: numeric (OD450). Do not append units.

>>> endpoint_value("S009-F2-56.12 (antibody, human IgG1, kappa, V domains shown, Human-murine chimeric antibody: murine VH/VL on human IgG1 heavy and kappa light constant regions) VH: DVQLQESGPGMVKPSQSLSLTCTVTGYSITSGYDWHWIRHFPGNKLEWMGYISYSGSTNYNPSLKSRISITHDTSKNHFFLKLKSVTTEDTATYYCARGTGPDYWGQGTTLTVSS VL: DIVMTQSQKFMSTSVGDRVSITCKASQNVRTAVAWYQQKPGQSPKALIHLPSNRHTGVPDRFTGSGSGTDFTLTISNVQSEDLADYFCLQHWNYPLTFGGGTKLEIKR")
0.14
>>> endpoint_value("S009-F2.58.8 (antibody, human IgG1, kappa, V domains shown, Human-murine chimeric antibody: murine VH/VL on human IgG1 heavy and kappa light constant regions) VH: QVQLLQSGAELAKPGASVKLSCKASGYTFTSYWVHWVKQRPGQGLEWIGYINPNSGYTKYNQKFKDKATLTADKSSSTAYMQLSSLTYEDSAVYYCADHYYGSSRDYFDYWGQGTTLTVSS VL: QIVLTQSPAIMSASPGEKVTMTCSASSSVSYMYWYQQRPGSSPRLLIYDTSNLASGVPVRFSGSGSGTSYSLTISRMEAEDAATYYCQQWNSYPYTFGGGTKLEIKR")
0.07
>>> endpoint_value("S009-F2.38.12 (antibody, human IgG1, kappa, V domains shown, Human-murine chimeric antibody: murine VH/VL on human IgG1 heavy and kappa light constant regions) VH: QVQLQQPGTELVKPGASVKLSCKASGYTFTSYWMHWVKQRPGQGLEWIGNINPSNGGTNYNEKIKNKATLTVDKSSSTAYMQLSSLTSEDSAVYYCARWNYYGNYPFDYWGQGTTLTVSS VL: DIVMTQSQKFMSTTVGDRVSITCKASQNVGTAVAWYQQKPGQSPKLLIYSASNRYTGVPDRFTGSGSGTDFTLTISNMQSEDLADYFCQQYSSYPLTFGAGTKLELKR")
0.06

# evaluate next
// fetch OD450 given entry S009-F2.21.4 (antibody, human IgG1, kappa, V domains shown, Human-murine chimeric antibody: murine VH/VL on human IgG1 heavy and kappa light constant regions) VH: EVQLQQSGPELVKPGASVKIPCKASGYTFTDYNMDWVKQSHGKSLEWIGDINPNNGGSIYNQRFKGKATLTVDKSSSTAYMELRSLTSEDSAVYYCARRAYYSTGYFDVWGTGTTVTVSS VL: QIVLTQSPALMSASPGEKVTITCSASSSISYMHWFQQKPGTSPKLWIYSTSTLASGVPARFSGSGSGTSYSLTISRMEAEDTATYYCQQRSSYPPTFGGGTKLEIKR
0.05
